assayedTarget: DNA dC->dU-editing enzyme APOBEC-3F (Homo sapiens) (UniProt Q8IUX4)
Sequence (Q8IUX4 whole entry, looked up): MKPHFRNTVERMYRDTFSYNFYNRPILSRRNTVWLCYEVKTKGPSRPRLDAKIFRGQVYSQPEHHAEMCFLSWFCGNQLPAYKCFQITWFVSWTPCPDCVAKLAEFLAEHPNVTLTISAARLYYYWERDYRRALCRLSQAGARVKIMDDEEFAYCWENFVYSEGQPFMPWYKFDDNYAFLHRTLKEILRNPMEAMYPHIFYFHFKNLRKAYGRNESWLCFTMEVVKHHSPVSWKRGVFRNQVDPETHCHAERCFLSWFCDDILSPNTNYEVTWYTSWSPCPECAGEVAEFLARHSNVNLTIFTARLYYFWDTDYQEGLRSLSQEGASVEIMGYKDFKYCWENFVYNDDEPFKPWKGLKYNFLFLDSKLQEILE
methodSummary: qHTS for inhibitors of Vif-A3F interactions: Cherry picks; also: potency is read from the fitted curve at half-maximal effect; nearly all actives have a fitted effect of over 70% in size
measurementContext: HeLa A3F-eYFP + Vif, eYFP fluorescence, 24 h
The whole screen tested about 2,100 compounds, of which about 590 (28%) were called active. About 42% were inconclusive and are not listed. This is one part of the list.
experimentalReadout: Potency

Below are worked cases with known answers.
molecule: CCN(CC)c1ccc2cc(-c3nc(-c4cc(OC)c(OC)c(OC)c4)no3)c(=O)oc2c1
Potency: 0.366 µM (active)
//
molecule: COc1ccc(OC)c(/C=C/c2nc3ccccc3[nH]c2=O)c1
Potency: 18.4 µM (active)
//
molecule: CCN(CC)c1ccc2cc(-c3nc4ccccc4n3C)c(=O)oc2c1
Potency: 4.11 µM (active)
//
molecule: Cc1cccc2cc3c(N)c(C(=O)N4CCc5ccccc54)sc3nc12
Potency: 6.51 µM (active)

State its Potency: `Cc1cccc2cc3c(N)c(C(=O)N4CCCc5ccccc54)sc3nc12`
9.2 µM (active)

###

assayedTarget: DNA dC->dU-editing enzyme APOBEC-3F (Homo sapiens) (UniProt Q8IUX4)
methodSummary: qHTS for inhibitors of Vif-A3F interactions: Cherry picks; also: potency is read from the fitted curve at half-maximal effect; nearly all actives have a fitted effect of over 70% in size
measurementContext: HeLa A3F-eYFP + Vif, eYFP fluorescence, 24 h
The whole screen tested about 2,100 compounds, of which about 590 (28%) were called active. Inconclusive results (about 42%) are left out. Some of the results follow.
experimentalReadout: Potency

Examples with their reported Potency follow.
compound: O=C(C[n+]1cccc2cc(Cl)ccc21)c1ccc(I)cc1
assayedTarget: DNA dC->dU-editing enzyme APOBEC-3F (Homo sapiens) (UniProt Q8IUX4)
Potency: 20.6 µM (active)

compound: CNc1ccc(/C=C/c2ccnc3ccccc23)cc1
assayedTarget: DNA dC->dU-editing enzyme APOBEC-3F (Homo sapiens) (UniProt Q8IUX4)
Potency: 14.6 µM (active)

compound: N#CCC(=O)N/N=C/c1ccc(N2N=C(c3ccccc3)CC2c2ccccc2)cc1 (configuration not stated)
assayedTarget: DNA dC->dU-editing enzyme APOBEC-3F (Homo sapiens) (UniProt Q8IUX4)
Potency: 18.4 µM (active)

Using known records, supply Potency for CCN(CC)c1ccc(/C=C/C2=C3C=CC=CC3NC=C2)cc1 (configuration not stated)
18.4 µM (active)

Give reported Potency value for CC(NC(=O)/C(C#N)=C/c1ccc([N+](=O)[O-])o1)c1ccccc1 (configuration not stated)
7.31 µM (active)

Return Potency (reported value) for this compound: `CCN(CC)c1ccc(/C=C/c2ccccn2)cc1`
5.17 µM (active)

For the compound CS(=O)(=O)Nc1ccc(C2=NN(S(C)(=O)=O)C(c3ccc4c(c3)OCO4)C2)cc1 (configuration not stated) , give its measured Potency value.
17.7 µM (active)

###

assayedTarget: DNA dC->dU-editing enzyme APOBEC-3F (Homo sapiens)
methodSummary: qHTS for inhibitors of Vif-A3F interactions: Cherry picks; also: potency is read from the fitted curve at half-maximal effect; nearly all actives have a fitted effect of over 70% in size
measurementContext: HeLa A3F-eYFP + Vif (tagged APOBEC3F with the HIV-1 protein that degrades it), eYFP fluorescence, 24 h
Out of some 2,100 compounds screened, about 590 (28%) were called active. Another 42% or so got no clear call; they are omitted. The list shows a part of the results.
experimentalReadout: Potency

Observe how each entry below is paired with its result.
compound: COc1ccccc1N=C1NC(=O)/C(=C/c2ccc(N(C)C)cc2)S1
assayedTarget: DNA dC->dU-editing enzyme APOBEC-3F (Homo sapiens)
Potency: 4.11 µM (active)
--
compound: CN(C)c1ccc(/C=N/NC(=O)c2cc(-c3ccc4c(c3)OCO4)n[nH]2)cc1
assayedTarget: DNA dC->dU-editing enzyme APOBEC-3F (Homo sapiens)
Potency: 17.7 µM (active)

GET Potency | system: DNA dC->dU-editing enzyme APOBEC-3F (Homo sapiens) | item: CCN(CC)c1nc2ccccc2nc1C(C#N)C(=O)NCCc1ccccc1 (centres undefined)
3.66 µM (active)

// output Potency; input `CCc1cccc2cc3c(N)c(C(=O)Nc4ccc(S(=O)(=O)N5CCCC5)cc4)sc3nc12` ; system DNA dC->dU-editing enzyme APOBEC-3F (Homo sapiens)
2.8 µM (active)

Please report the measured Potency for `CC(=O)n1c2ccccc2c2nc3ccccc3nc21` tested on DNA dC->dU-editing enzyme APOBEC-3F (Homo sapiens).
11.6 µM (active)

# return Potency for `CC(=O)c1ccc2cccc3c2c1N=CN3C` , test system: DNA dC->dU-editing enzyme APOBEC-3F (Homo sapiens)
15.8 µM (active)

Fill: Potency (DNA dC->dU-editing enzyme APOBEC-3F (Homo sapiens)) for this compound `CN(C)c1ccc(/C=C/c2ccnc3ccccc23)cc1O`
11.6 µM (active)

Write Potency of `CN(C)c1ccc(C=C2SC(=S)NC2=O)cc1` ; system used: DNA dC->dU-editing enzyme APOBEC-3F (Homo sapiens)
17.7 µM (active)

Please indicate recorded Potency of `Cc1cc(NC(=O)/C(C#N)=C/c2ccc(-c3ccc(SC(F)F)cc3)o2)n(-c2ccccc2)n1` measured with DNA dC->dU-editing enzyme APOBEC-3F (Homo sapiens).
3.66 µM (active)

# assay system DNA dC->dU-editing enzyme APOBEC-3F (Homo sapiens): give Potency of `Cc1cc(C)cc(NC(=O)Cn2cc(C(=O)C3CCCCC3)c3ccccc32)c1`
18.4 µM (active)

Write down the reported Potency (system: DNA dC->dU-editing enzyme APOBEC-3F (Homo sapiens)) of `Cc1ccc(-c2cc(NC=O)c3ncc(-c4cnn(C)c4)n3c2)cc1`
7.9 µM (active)

Print DNA dC->dU-editing enzyme APOBEC-3F (Homo sapiens) Potency for `CCOc1cc(/C=C2\CCC/C(=C\c3cc(Cl)c(O)c(OCC)c3)C2=O)cc(Cl)c1O` .
7.04 µM (active)

Provide DNA dC->dU-editing enzyme APOBEC-3F (Homo sapiens) Potency reading for `CN1CCCc2cc(/C=C/c3ccnc4ccccc34)ccc21` .
4.11 µM (active)

These data points were gathered from PubChem BioAssay AID651814.
